Assay: small-molecule microarray binders of probe aDKK1, primary screen, biochemical, biotinylated probe, 635/667 nm fluorescence (AID 1099);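 also: score merges 667nm spot fluorescence with signal to noise across triplicate slides; reference of the scale not given here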
Settings: higher = more signal
Could you please report measured composite z-score for the items listed next?
Give bare numbers.

Below are worked cases with known answers.
# compound, composite z-score
records = [
    ("OCC1CC(c2ccccc2)=NO1 (stereo not given)", -0.217),
    ("CC(C)C(CO)N1C(=O)[C@@H]2C3C(=O)OCCC/C=C\\[C@H]3OC23C=CCN(C(C)(C)C)C(=O)[C@@H]13 (stereo not given in full)", -0.456),
    ("C=CCC(OC(C)=O)[C@@H]1[C@@H](N(Cc2cc3ccccc3o2)C(=O)c2ccc(C)cc2)c2cc(OCCCO)ccc2N1C(=O)Cc1ccc(OC)cc1 (stereo not given in full)", -0.199),
    ("CN(C)CCCNC(=O)[C@@]1(C)c2ccccc2C(=O)N(Cc2ccccc2)[C@H]1c1ccc(CO)cc1", -0.719),
    ("COc1ccc(CCNC(=O)[C@@]2(Sc3ccc(C)cc3)CC(=O)N(C3Cc4ccccc4C3)[C@@H]2c2ccc(CO)cc2)cc1", 0.167),
]

I would be grateful if you could provide composite z-score for each of the following entries.
1. CCCCC(=C=CC[C@@H](O)c1ccccc1OCCO)C[C@@H](O)COCc1ccccc1
2. CC1CC/C=C\[C@H]2OC34C=CCN(c5ccc(Cl)cc5)C(=O)[C@H]3N(CCCCCO)C(=O)[C@]4(C)C2C(=O)O1 (stereo not given in full)
3. C=CCC(OC(C)=O)[C@@H]1[C@@H](N(Cc2cccc3ccccc23)C(=O)Cc2ccc(OC)cc2)c2cc(OCCCO)ccc2N1C(=O)c1ccc2ccccc2n1 (stereo not given in full)

1: -0.126; 2: -0.153; 3: -0.0805

====

Experiment: inhibitors of hydroxyurea-induced Chk1 phosphorylation, primary screen, imaging, HeLa, phospho-Chk1 antibody, percent positive cells (AID 1186)
Details: hydroxyurea-induced phospho-Chk1 immunofluorescence imaging, higher = more signal
assay_endpoint: z-score
Numbers only.

# molecule, z-score
data = [
    ("COC(=O)[C@@]1(Cc2ccc(F)cc2)[C@H]2c3cc(C(=O)N4CCCC4)n(CCN4CNCC4=O)c3C[C@H]2CN1C(=O)c1ccccc1", 0.191),
    ("O=C(NCC(F)(F)F)[C@@H]1c2ccccc2C(=O)N(Cc2ccccc2C(F)(F)F)[C@H]1c1ccc(CO)cc1", 0.0364),
    ("O=C1OCCC=C[C@H]2OC34C=CCN(Cn5nnc6ccccc65)C(=O)[C@H]3N(CCCCCCO)C(=O)[C@@H]4C12 (some centres not stated)", -0.667),
    ("CN(C)C(=O)C1N=C(c2ccc(OCCCO)cc2)N(c2ccccc2)O1 (configuration not stated)", -0.823),
    ("[N-]=[N+]=Nc1ccccc1[C@H]1OC(c2ccc(OCCCO)cc2)=N[C@@]1(Cc1ccccc1)C(=O)N1CCCCC1", -0.549),
]

// for each molecule below, give its z-score
1. CCOC(=O)C[C@H]1[C@H](OC(=O)c2ccc(C(=O)c3ccccc3)cc2)[C@@H](NC(=O)Cc2ccc(OC)cc2)c2cc(OCCCO)ccc2N1C(=O)c1ccccc1
2. COCCCNC(=O)[C@]1(CCS(=O)(=O)c2ccccc2)N=C(c2ccc(OCCCO)cc2)O[C@@H]1c1ccccc1CN=[N+]=[N-]

0.72
-0.684

====

Provide the recorded z-score for the entries that follow.
Assay: osmotic lysis modulators in infected erythrocytes, primary screen, PSAC antagonist project, cell-based, P. falciparum Indochina, OD700, 3 h (AID 1156)
Conditions: higher = more signal, called active from +8 up or from −8 down
Answers are plain numbers.

Worked examples follow.
# compound, assay_endpoint, assay_value
rows = [
    ("[N-]=[N+]=NCc1ccccc1C[C@@]1(C(=O)NCc2ccccc2)N=C(c2ccc(OCCCO)cc2)O[C@@H]1c1ccccc1N=[N+]=[N-]", "z-score", 2.4),
    ("C=CCNC(=O)[C@H]1[C@@H]2C(=O)O[C@@H](c3ccccc3)[C@@H](c3ccccc3)N2[C@@H](c2ccc(O)cc2)[C@]12C(=O)N(C(=O)OCCOC)c1ccccc12", "z-score", 1.77),
    ("O=C(NCC(F)(F)F)[C@@H]1c2ccccc2C(=O)N(Cc2ccc(OC(F)(F)F)cc2)[C@H]1c1ccc(CO)cc1", "z-score", 1.44),
    ("CC(C)Cc1ccc(CN2CC[C@@H](NC(=O)Nc3ccccc3)C2)cc1", "z-score", 1.84),
    ("O=C1OCC=C[C@H]2OC34C=CCN(c5ccc(Cl)cc5)C(=O)[C@H]3N(CCO)C(=O)[C@@H]4[C@@H]12 (some centres not stated)", "z-score", 0.111),
    ("COC(=O)[C@@]1(Cc2ccc(OC)cc2)[C@H]2c3cc(C(=O)N(C)C)n(Cc4ccc(Cl)c(C(F)(F)F)c4)c3C[C@H]2CN1C(=O)c1ccccc1", "z-score", 1.01),
]

// next item, z-score requested
// lookup z-score for COc1cc2c(cc1OC)CN(C(=O)[C@@H]1[C@H]3C(=O)O[C@H](c4ccccc4)[C@H](c4ccccc4)N3[C@H](c3ccc(OCCO)cc3)[C@@]13C(=O)Nc1ccccc13)CC2
1.06

====

Test: small-molecule microarray binders of probe aWnt5a, primary screen, biochemical, biotinylated probe, 635/667 nm fluorescence (AID 1113);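 also: score merges 667 nm fluorescence intensity with signal-to-noise per printed feature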
Settings: higher = more signal
assay_endpoint: composite z-score

# compound, composite z-score
data = [
    ("COc1ccc([Si](C)(C)[C@@H]2[C@@H](CC(=O)N3Cc4ccccc4C[C@H]3CO)O[C@]3(C(=O)N(Cc4cccc(N5C(=O)c6cccc7cccc5c67)c4)c4ccccc43)[C@H]2C)cc1", -0.0685),
]

// each compound listed below needs its composite z-score
1. COc1ccc(CCNC(=O)[C@@]2(Sc3ccc(C)cc3)CC(=O)N(C3Cc4ccccc4C3)[C@@H]2c2ccc(CO)cc2)cc1
2. CN(C)CCCNC(=O)[C@@]1(c2ccc([N+](=O)[O-])cc2)CC(=O)N(CC23CC4CC(CC(C4)C2)C3)[C@@H]1c1ccc(CO)cc1I
3. CC(C)(C)OC(=O)CC[C@]1(C(=O)NCC(O)CO)N=C(c2ccc(OCCCO)cc2)O[C@H]1c1ccccc1 (some centres undefined)
4. CN1C(=O)C2C=CC(C(O)c3cccc(O)c3)N(Nc3ccccc3)C2C1=O (centres undefined)
5. O=C1OCCC=C[C@H]2OC34C=CCN(Cn5nnc6ccccc65)C(=O)[C@H]3N(CCCCCCO)C(=O)[C@@H]4C12 (some centres undefined)
6. COC1OC[C@]2(C)[C@H]3C4=C(CN2C(=O)OC(C)(C)C)[C@H](C)C(CO)C(CO)C4CC[C@@H]13 (some centres undefined)

1: 0.0799; 2: 0.0668; 3: -0.0403; 4: 0.0597; 5: -0.208; 6: -0.0007

Would you mind listing composite z-score for each of the following compounds?
1. COC(=O)[C@@]1(Cc2ccccc2)[C@H]2c3cc(C(=O)N(C)C)n(CCN4CNCC4=O)c3C[C@H]2CN1C(=O)c1ccccc1
2. [N-]=[N+]=NCc1ccccc1C[C@@]1(C(=O)N2CCOCC2)N=C(c2ccc(OCCCO)cc2)O[C@@H]1c1ccccc1
3. C=CCNC(=O)[C@H]1[C@@H]2C(=O)O[C@@H](c3ccccc3)[C@@H](c3ccccc3)N2[C@@H](c2ccc(O)cc2)[C@]12C(=O)Nc1ccc(C#CC3(O)CCCCCC3)cc12
4. Cn1cccc1C(O)C1C=CC2C(=O)NC(=O)C2N1Nc1ccc(Cl)cc1Cl (centres undefined)

0.401
0.0597
-0.036
0.0044

Below are some compounds; for each one, tell me its composite z-score.
1. COC(=O)[C@@]1(Cc2ccc(F)cc2)[C@H]2c3cc(C(=O)N4CCCC4)n(CCN4CNCC4=O)c3C[C@H]2CN1C(=O)c1ccccc1
2. C=CCC(OC(C)=O)[C@@H]1[C@@H](N(Cc2cc3ccccc3o2)C(=O)Cc2ccc(F)cc2)c2cc(OCCCO)ccc2N1C(=O)c1ccc2ccccc2c1 (some centres undefined)
3. C[N+](C)(C)CCCCCCNC(=O)[C@H]1C[C@H]2C(=O)N[C@@H](Cc3ccccc3)C(=O)N2[C@H]1c1ccc(O)cc1

[0.307, -0.0843, 0.0873]

====

Biological target: Homeobox protein Hox-A13 (Mus musculus)
Assay: inhibitors of HoxA13-DNA binding, primary screen, biochemical, fluorescence polarization, labeled oligonucleotide (AID 1185)
Conditions: 15 min, higher = more signal, called active from +8 up or from −8 down
assay_endpoint: z-score
One number for each entry.

Here is how some compounds turned out for z-score.
# compound, system_under_test, z-score
records = [
    ("CC=CC(O)C1C=CC2C(=O)N(c3ccccc3)C(=O)C2N1Nc1ccccc1F (stereo not given)", "Homeobox protein Hox-A13 (Mus musculus)", -3.7),
    ("COCCOC(=O)N1C(=O)[C@@]2(c3cc(C#CC4=CCCCC4)ccc31)[C@H](c1ccc(O)cc1)N1[C@H](c3ccccc3)[C@H](c3ccccc3)OC(=O)[C@H]1[C@@H]2C(=O)N1CCN(c2ncccn2)CC1", "Homeobox protein Hox-A13 (Mus musculus)", -0.674),
    ("CC1CC/C=C\\[C@H]2OC34C=CCN(C(C)C)C(=O)[C@H]3N(CCCCCCO)C(=O)[C@@H]4C2C(=O)O1 (stereo not given in full)", "Homeobox protein Hox-A13 (Mus musculus)", -3.74),
]

Okay, here is my list. What is z-score for each of these?
1. CCOC(=O)c1ccc(NC(=O)O[C@H]2[C@H](OC(=O)Nc3ccc4c(c3)OCO4)[C@@H](OC(=O)Nc3ccc4c(c3)OCO4)[C@@H](OC)O[C@@H]2CO)cc1
2. C=C[C@@H](OC)[C@H](OC(=O)Nc1ccc(SC)cc1)c1ccc(O)c(F)c1

-8.16
-4.2

Dear colleague, could you send me z-score for each of the items below? Thanks.
1. CCOC(=O)C[C@H]1[C@H](OC(=O)c2cc3ccccc3oc2=O)[C@@H](NC(=O)Cc2ccc(OC)cc2)c2cc(OCCCO)ccc2N1C(=O)c1ccc2ccccc2n1
2. CC(C)Cc1ccc(CN2CC[C@@H](NC(=O)Nc3ccccc3)C2)cc1
3. CCCNC(=O)[C@@]1(c2ccc([N+](=O)[O-])cc2)CC(=O)N(C2CCCCC2)[C@@H]1c1ccc(CO)cc1

-4.04
0.339
-3.27
